Item-by-item account of pEC50
Biological target: human MC1R (Homo sapiens, UniProt Q01726)
Construct: expressed in transfected cells
Sequence (Q01726 whole entry): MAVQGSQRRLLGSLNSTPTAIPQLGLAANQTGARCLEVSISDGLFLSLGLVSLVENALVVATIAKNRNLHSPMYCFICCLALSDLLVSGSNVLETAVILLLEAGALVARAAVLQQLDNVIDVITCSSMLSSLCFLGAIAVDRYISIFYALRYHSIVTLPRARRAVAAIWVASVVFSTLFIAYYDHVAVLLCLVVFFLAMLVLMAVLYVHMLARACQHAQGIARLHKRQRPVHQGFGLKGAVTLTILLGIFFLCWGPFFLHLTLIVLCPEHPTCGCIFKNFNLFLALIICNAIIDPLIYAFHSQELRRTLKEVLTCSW
Assay: Functional cAMP assay (CisBio HTRF) in BHK cells expressing human MC1R
Assay type: cell-based
Details: BHK cells expressing human MC1R; '>' = highest dose used with no response; read-out: MC1R cAMP EC50
pEC50: −log10 of the molar value. Starred links: 1 amine or outer side, 2 acyl side, 3 side chain; linkers in the order of their positions; H or OH if unused. Positions of bridges follow the written chain, without caps; N, C: chain ends. Non-standard residues stand in square brackets, D forms with d. Residues, ends and D or L forms follow the SMILES beside them. Phe(3,4-Cl2) = N[C@@H](Cc1ccc(Cl)c(Cl)c1)C(=O)O; Ser(ΨH,HPro) = O=C(O)[C@@H]1COCN1; Hyp = O=C(O)[C@@H]1C[C@@H](O)CN1; CH2 = C([*:1])[*:2]; Sar = CNCC(=O)O

COMPOUND: C[C@@H]1NC(=O)[C@@H]2CSSC[C@H](NC(=O)[C@H](Cc3c[nH]c4ccccc34)NC(=O)[C@H](CCCNC(N)=O)NC(=O)[C@@H](Cc3ccccc3)NC(=O)[C@H](Cc3c[nH]cn3)NC1=O)C(=O)N[C@@H](C)C(=O)N[C@@H](Cc1c[nH]cn1)C(=O)N[C@H](Cc1ccccc1)C(=O)N[C@@H](CCCNC(N)=O)C(=O)N[C@@H](Cc1c[nH]c3ccccc13)C(=O)N2
pEC50: < 9.00

COMPOUND: C[C@@H]1NC(=O)[C@@H]2CSSC[C@H](NC(=O)[C@H](Cc3c[nH]c4ccccc34)NC(=O)[C@H](CCCCN)NC(=O)[C@H](CCCCN)NC(=O)[C@H](CCCCN)NC1=O)C(=O)N1CCC[C@H]1C(=O)N[C@@H](Cc1c[nH]cn1)C(=O)N[C@H](Cc1ccccc1)C(=O)N[C@@H](Cc1c[nH]cn1)C(=O)N[C@@H](Cc1c[nH]c3ccccc13)C(=O)N2 [Chem. 62] (cyclo(AKKKWCPH[dF]HWC); disulfide 6-12)
pEC50: < 9.00

COMPOUND: C[C@@H]1NC(=O)[C@@H]2CSSC[C@H](NC(=O)[C@H](Cc3c[nH]c4ccccc34)NC(=O)[C@H](CCCCN)NC(=O)[C@H](CCCCN)NC(=O)[C@H](CCCCN)NC1=O)C(=O)N1COC[C@H]1C(=O)N[C@@H](Cc1c[nH]cn1)C(=O)N[C@H](Cc1ccccc1)C(=O)N[C@@H](Cc1c[nH]cn1)C(=O)N[C@@H](Cc1c[nH]c3ccccc13)C(=O)N2 [Chem. 103] (cyclo(AKKKWC[Ser(ΨH,HPro)]H[dF]HWC); disulfide 6-12)
pEC50: < 7.15

COMPOUND: C[C@@H]1NC(=O)[C@@H]2CSCSC[C@H](NC(=O)[C@H](Cc3c[nH]c4ccccc34)NC(=O)[C@H](CCCNC(=N)N)NC(=O)[C@@H](Cc3ccccc3)NC(=O)[C@@H]3C[C@@H](O)CN3C1=O)C(=O)N[C@@H](C)C(=O)N1C[C@H](O)C[C@H]1C(=O)N[C@H](Cc1ccccc1)C(=O)N[C@@H](CCCNC(=N)N)C(=O)N[C@@H](Cc1c[nH]c3ccccc13)C(=O)N2 [Chem. 23] (cyclo(A[Hyp][dF]RWCA[Hyp][dF]RWC); linker 6-12 via CH2)
pEC50: < 8.00

COMPOUND: C[C@@H]1NC(=O)[C@@H]2CSSC[C@H](NC(=O)[C@H](Cc3c[nH]c4ccccc34)NC(=O)[C@H](CCCCN)NC(=O)[C@H](CCCCN)NC(=O)[C@H](CCCCN)NC1=O)C(=O)N1CCC[C@@H]1C(=O)N[C@@H](Cc1c[nH]cn1)C(=O)N[C@H](Cc1ccccc1)C(=O)N[C@@H](Cc1c[nH]cn1)C(=O)N[C@@H](Cc1c[nH]c3ccccc13)C(=O)N2 [Chem. 98] (cyclo(AKKKWC[dP]H[dF]HWC); disulfide 6-12)
pEC50: < 7.26

COMPOUND: C[C@@H]1NC(=O)[C@@H]2CSSC[C@H](NC(=O)[C@H](CCCNC(=N)N)NC(=O)[C@H](CCCCN)NC(=O)[C@H](CCCCN)NC(=O)[C@H](CCCCN)NC1=O)C(=O)N(C)CC(=O)N[C@@H](Cc1c[nH]cn1)C(=O)N[C@H](Cc1ccccc1)C(=O)N[C@@H](Cc1c[nH]cn1)C(=O)N[C@@H](Cc1c[nH]c3ccccc13)C(=O)N2 [Chem. 74] (cyclo(AKKKRC[Sar]H[dF]HWC); disulfide 6-12)
pEC50: < 8.26

COMPOUND: C[C@@H]1NC(=O)[C@@H]2CSSC[C@H](NC(=O)[C@H](Cc3c[nH]c4ccccc34)NC(=O)[C@H](CCCCN)NC(=O)[C@H](CCCCN)NC(=O)[C@H](CCCCN)NC1=O)C(=O)N(C)CC(=O)N[C@@H](Cc1c[nH]cn1)C(=O)N[C@H](Cc1ccccc1)C(=O)N[C@@H](Cc1c[nH]cn1)C(=O)N[C@@H](Cc1c[nH]c3ccccc13)C(=O)N2 [Chem. 73] (cyclo(AKKKWC[Sar]H[dF]HWC); disulfide 6-12)
pEC50: < 7.30

COMPOUND: C[C@@H]1NC(=O)[C@@H]2CSSC[C@H](NC(=O)[C@H](Cc3ccc(Cl)c(Cl)c3)NC(=O)[C@H](CCCNC(=N)N)NC(=O)[C@@H](Cc3ccccc3)NC(=O)[C@H](Cc3c[nH]cn3)NC1=O)C(=O)N[C@@H](C)C(=O)N[C@@H](CCCCN)C(=O)N[C@@H](CCCCN)C(=O)N[C@@H](CCCCN)C(=O)N[C@@H](Cc1c[nH]c3ccccc13)C(=O)N2 [Chem. 66] (cyclo(AH[dF]R[Phe(3,4-Cl2)]CAKKKWC); disulfide 6-12)
pEC50: 9.66

COMPOUND: C[C@@H]1NC(=O)[C@@H]2CSSC[C@H](NC(=O)[C@H](Cc3c[nH]c4ccccc34)NC(=O)[C@@H]3C[C@H](NC(=N)N)CN3C(=O)[C@@H](Cc3ccccc3)NC(=O)[C@H](Cc3c[nH]cn3)NC1=O)C(=O)N[C@@H](C)C(=O)N[C@@H](Cc1c[nH]cn1)C(=O)N[C@H](Cc1ccccc1)C(=O)N1C[C@@H](NC(=N)N)C[C@H]1C(=O)N[C@@H](Cc1c[nH]c3ccccc13)C(=O)N2
pEC50: < 7.00

COMPOUND: C[C@@H]1NC(=O)[C@@H]2CSSC[C@H](NC(=O)[C@H](CCCNC(=N)N)NC(=O)[C@H](CCCCN)NC(=O)[C@H](CCCCN)NC(=O)[C@H](CCCCN)NC1=O)C(=O)N[C@H](C)C(=O)N[C@@H](Cc1c[nH]cn1)C(=O)N[C@H](Cc1ccccc1)C(=O)N[C@@H](CCCNC(=N)N)C(=O)N[C@@H](Cc1c[nH]c3ccccc13)C(=O)N2 [Chem. 85] (cyclo(AKKKRC[dA]H[dF]RWC); disulfide 6-12)
pEC50: 9.66

COMPOUND: N=C(N)NCCC[C@@H]1NC(=O)[C@@H](Cc2ccccc2)NC(=O)[C@H](Cc2c[nH]cn2)NC(=O)[C@H]2CCCN2C(=O)[C@@H]2CSSC[C@H](NC(=O)[C@H](Cc3c[nH]c4ccccc34)NC1=O)C(=O)N1CCC[C@@H]1C(=O)N[C@@H](Cc1c[nH]cn1)C(=O)N[C@H](Cc1ccccc1)C(=O)N[C@@H](CCCNC(=N)N)C(=O)N[C@@H](Cc1c[nH]c3ccccc13)C(=O)N2 [Chem. 33] (cyclo(C[dP]H[dF]RWC[dP]H[dF]RW); disulfide 1-7)
pEC50: < 9.00
